target: MAO B (Homo sapiens); test: MAO B inhibitory activity assay; assay type: biochemical; details: terpene at 0.5% (v/v) in Don Julio Añejo (40% ABV) minus in 40% ethanol
Sequence (P27338 whole entry): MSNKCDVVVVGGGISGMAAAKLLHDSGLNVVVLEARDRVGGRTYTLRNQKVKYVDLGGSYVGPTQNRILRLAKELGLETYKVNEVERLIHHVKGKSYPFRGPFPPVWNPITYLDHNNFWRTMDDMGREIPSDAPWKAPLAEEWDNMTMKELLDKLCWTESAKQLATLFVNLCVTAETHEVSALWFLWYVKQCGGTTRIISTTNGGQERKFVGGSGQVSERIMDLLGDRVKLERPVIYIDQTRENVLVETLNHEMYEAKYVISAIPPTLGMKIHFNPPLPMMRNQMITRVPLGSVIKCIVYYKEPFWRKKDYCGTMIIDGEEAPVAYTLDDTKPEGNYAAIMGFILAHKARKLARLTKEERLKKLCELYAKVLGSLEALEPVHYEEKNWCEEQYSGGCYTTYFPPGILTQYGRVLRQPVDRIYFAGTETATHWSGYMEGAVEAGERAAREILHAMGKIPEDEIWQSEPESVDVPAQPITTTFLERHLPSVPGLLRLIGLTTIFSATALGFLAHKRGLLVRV
Give Δ % Inhibition MAO B (DJA + terpene) − (ETOH + terpene) for every item shown.
Write down the numeric answer in % and omit the unit.

For the compound `C=C(C)[C@@H]1CCC2=CCC[C@@H](C)[C@]2(C)C1` , give its measured Δ % Inhibition MAO B (DJA + terpene) − (ETOH + terpene) value.
20

For the compound `CC1=CCC(=C(C)C)CC1` , give its measured Δ % Inhibition MAO B (DJA + terpene) − (ETOH + terpene) value.
9

For the compound `C=CC(=C)CCC=C(C)C` , give its measured Δ % Inhibition MAO B (DJA + terpene) − (ETOH + terpene) value.
11

For the compound `C=CCc1ccc(O)c(OC)c1` , give its measured Δ % Inhibition MAO B (DJA + terpene) − (ETOH + terpene) value.
8

For the compound `CC(C)=CCCC(C)=CC=O` , give its measured Δ % Inhibition MAO B (DJA + terpene) − (ETOH + terpene) value.
2

---

target: MAO A (Homo sapiens, UniProt P21397); test: MAO A inhibitory activity assay; format: biochemical; details: terpene at 0.5% (v/v) in Don Julio Añejo (40% ABV) minus in 40% ethanol
Sequence (P21397 whole entry): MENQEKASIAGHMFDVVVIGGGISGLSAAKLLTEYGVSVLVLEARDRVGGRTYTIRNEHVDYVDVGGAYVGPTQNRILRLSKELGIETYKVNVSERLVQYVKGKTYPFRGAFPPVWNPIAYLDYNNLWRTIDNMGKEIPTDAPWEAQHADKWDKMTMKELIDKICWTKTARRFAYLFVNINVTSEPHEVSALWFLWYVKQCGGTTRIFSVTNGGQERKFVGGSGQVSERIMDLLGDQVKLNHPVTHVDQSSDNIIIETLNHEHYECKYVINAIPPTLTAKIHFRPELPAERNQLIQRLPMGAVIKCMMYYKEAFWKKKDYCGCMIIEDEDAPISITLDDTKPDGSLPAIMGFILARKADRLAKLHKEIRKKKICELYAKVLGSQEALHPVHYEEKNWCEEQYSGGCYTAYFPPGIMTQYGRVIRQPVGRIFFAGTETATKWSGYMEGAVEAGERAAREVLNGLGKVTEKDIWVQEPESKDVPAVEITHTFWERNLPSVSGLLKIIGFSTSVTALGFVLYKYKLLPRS
Give Δ % Inhibition MAO A (DJA + terpene) − (ETOH + terpene) for every item shown.
Write down the numeric answer in % and omit the unit.

For the molecule CC1=CCC(=C(C)C)CC1 [terpinolene] , give its measured Δ % Inhibition MAO A (DJA + terpene) − (ETOH + terpene) value.
1

For the molecule CC(C)=CCCC(C)=CC=O [citral] , give its measured Δ % Inhibition MAO A (DJA + terpene) − (ETOH + terpene) value.
0

For the molecule C=CCc1ccc(O)c(OC)c1 [eugenol] , give its measured Δ % Inhibition MAO A (DJA + terpene) − (ETOH + terpene) value.
1

For the molecule C=C(C)[C@@H]1CCC2=CCC[C@@H](C)[C@]2(C)C1 [valencene] , give its measured Δ % Inhibition MAO A (DJA + terpene) − (ETOH + terpene) value.
9

For the molecule C=CC(=C)CCC=C(C)C [β-myrcene] , give its measured Δ % Inhibition MAO A (DJA + terpene) − (ETOH + terpene) value.
5

Reference source for all entries: patent US20240228920A1
